Sourced from patent US20120258980A1

Recorded MIC values for a group of compounds are listed next.
system: Enterococcus faecalis; assay: MIC measurement, Test Example 6 (enterococcus); format: cell-based; details: Enterococcus faecalis, E. faecalis 36-15688, quinolone-susceptible enterococci; read-out: MIC
Structures can show the parent of a compound that is named as a salt.

| compound | readout-name | experimental-result |
| --- | --- | --- |
| NC1CCN(c2nc3c(cc2F)c(=O)c(C(=O)O)cn3-c2ccc(F)cc2F)C1 (stereo not drawn) [TFLX, tosufloxacin tosylate] | MIC | ≤ 0.063 µg/mL |
| Cc1cc(=O)n(C)c2c3c4c(cc12)c(C)cc(=O)n4CO3 [DNM, deoxynybomycin] | MIC | > 64 µg/mL |

Okay, now this compound:
Form: compound = Cc1cc(=O)n2c3c(c4c(cc13)c(CO)cc(=O)n4C)OC2 [NM, nybomycin] ; MIC = > 64 µg/mL

* * *

system: VISA clinical isolates of MRSA (VI-MRSA) and of MSSA (VI-MSSA); assay: microbe, parasite or virus in culture; type: cell-based, Staphylococcus aureus; conditions: Staphylococcus aureus, NJ (HIP5836), VI-MRSA, America
Lab note: cut-off is 30 µg/mL. Strictly less in MIC is MET. Exactly 30 µg/mL or more is NOT MET.

| molecule | class-label |
| --- | --- |
| Cc1onc(-c2ccccc2)c1C(=O)N[C@@H]1C(=O)N2[C@@H]1SC(C)(C)[C@@H]2C(=O)O | NOT MET |
| C[C@@H]1CN(c2c(F)c(N)c3c(=O)c(C(=O)O)cn(C4CC4)c3c2F)C[C@H](C)N1 | NOT MET |
| C[C@H]1COc2c(N3CCN(C)CC3)c(F)cc3c(=O)c(C(=O)O)cn1c23 | MET |
| CC1COc2c(N3CCN(C)CC3)c(F)cc3c(=O)c(C(=O)O)cn1c23 (stereo not shown) | NOT MET |
| CCn1cc(C(=O)O)c(=O)c2cc(F)c(N3CCNCC3)cc21 | NOT MET |

Please state whether MIC is below 30 µg/mL for Cc1cc(=O)n(C)c2c3c4c(cc12)c(C)cc(=O)n4CO3
MET

Hi there! Is MIC for CN[C@H](CC(C)C)C(=O)N[C@H]1C(=O)N[C@@H](CC(N)=O)C(=O)N[C@H]2C(=O)N[C@H]3C(=O)N[C@H](C(=O)N[C@H](C(=O)O)c4cc(O)cc(O)c4-c4cc3ccc4O)[C@H](O)c3ccc(c(Cl)c3)Oc3cc2cc(c3O[C@@H]2O[C@H](CO)[C@@H](O)[C@H](O)[C@H]2O[C@H]2C[C@](C)(N)[C@H](O)[C@H](C)O2)Oc2ccc(cc2Cl)[C@H]1O below 30 µg/mL, do you know?
MET

* * *

system: MRSA, CA-MRSA and MSSA of Staphylococcus aureus; test: MIC measurement, Test Example 4 (MRSA, CA-MRSA and MSSA strains); format: cell-based; settings: Staphylococcus aureus, ISA37-1, MSSA
Where a name gives a salt, the structure may show the parent alone.
readout-name: MIC

| molecule | measurement-target | MIC |
| --- | --- | --- |
| Cc1cc(=O)n2c3c(c4c(cc13)c(CO)cc(=O)n4C)OC2 [NM, nybomycin] | MRSA, CA-MRSA and MSSA of Staphylococcus aureus | > 64 µg/mL |
| NC1CCN(c2nc3c(cc2F)c(=O)c(C(=O)O)cn3-c2ccc(F)cc2F)C1 (stereo not drawn) [TFLX, tosufloxacin tosylate] | MRSA, CA-MRSA and MSSA of Staphylococcus aureus | ≤ 0.063 µg/mL |

Now for another entry.
molecule Cc1cc(=O)n(C)c2c3c4c(cc12)c(C)cc(=O)n4CO3 [DNM, deoxynybomycin] , MIC observed: > 64 µg/mL

* * *

Quick list: MIC per entry.
tested on: VRSA clinical isolates; assay: microbe, parasite or virus in culture; format: cell-based; conditions: Staphylococcus aureus, VRS6, VRSA, Michigan
Where a name gives a salt, the structure may show the parent alone.

| compound | MIC |
| --- | --- |
| Cc1cc(=O)n(C)c2c3c4c(cc12)c(C)cc(=O)n4CO3 [DNM, deoxynybomycin] | ≤ 0.063 µg/mL |
| NC1CCN(c2nc3c(cc2F)c(=O)c(C(=O)O)cn3-c2ccc(F)cc2F)C1 (stereo not shown) [TFLX, tosufloxacin tosylate] | > 128 µg/mL |
| CCn1cc(C(=O)O)c(=O)c2cc(F)c(N3CCNCC3)cc21 [NFLX, norfloxacin] | > 128 µg/mL |

// Cc1cc(=O)n2c3c(c4c(cc13)c(CO)cc(=O)n4C)OC2 [NM, nybomycin] : MIC value = ≤ 0.063 µg/mL
